tested on: DU-145 prostate; experiment: NCI tumour cell line growth inhibition, 48 h
recordedMetric: TGI

Consider the reported TGI for these molecules:
| molecule | val |
| --- | --- |
| COc1cc2c(cc1OC)C(=O)N(c1ccc(OCCN3CCCC3)cc1)C2=O | > 100 µM |
| O=c1c2cc(I)ccc2nc(-c2cccs2)n1O | 96.9 µM |
| CC(C)=Nn1cnc2c1NC(C)(C)N=C2C(N)=O | > 10 µM |
| CNCc1cccc2c1OCCOCCOCCC(C)S(=O)(=O)c1ccc(cc1)-c1cnc(N)c(n1)C(=O)N2 (configuration not stated) | 3.41 µM |
| Cc1ccc2nc(C(=O)O)c(=O)[nH]c2c1 | > 100 µM |

Working through the 7 molecules below one at a time, give TGI for each.
1. Cc1ccc(S(=O)(=O)N2CCC(C(=O)O)(c3ccccc3)CC2)cc1
2. CC(=O)N[C@@H](Cc1ccc(O)cn1)C(=O)NC1CCCCC1
3. N#CC(NNC(=O)c1ccccc1O)c1c(O)ccc2ccccc12 (configuration not stated)
4. N#CCC1(n2cc(-c3ncnc4[nH]ccc34)cn2)CN(C2CCN(C(=O)c3ccnc(C(F)(F)F)c3F)CC2)C1
5. O=C1C2CC[C@@H]3C(=O)C(Cl)(Cl)[C@@H]3CCC2C1(Cl)Cl (some centres not stated)
6. COC1OC(C(=O)O)C2OC(C)(C)OC12 (configuration not stated)
7. COc1cc(/C=C\c2cc(OC)c(OC)c(OC)c2)cc(NS(=O)(=O)c2ccc(Cl)cc2)c1OC

["> 100 µM", "> 100 µM", "18.4 µM", "> 100 µM", "> 100 µM", "> 100 µM", "> 100 µM"]

====

tested on: SK-MEL-5 melanoma; test: NCI tumour cell line growth inhibition, 48 h
Would you mind telling me the reported TGI of each entry?
One number for each entry, in µM.

Consider the reported TGI for these molecules:
| molecule | uom | TGI |
| --- | --- | --- |
| NC(N)=N/N=C(/c1ccccc1)c1ccccc1F | µM | 12.5 |
| COc1ccc(-c2cc(-c3ccccc3)nc(NCCNc3ccnc4cc(Cl)ccc34)n2)cc1 | µM | 3.3 |
| CCCCCCCCCCCCC1N=C(N)NC2(CCCO2)C1C(=O)OC (stereo not drawn) | µM | 23.7 |

Next molecule, please.
So what does the record say about TGI for CNCc1ccc(-c2[nH]c3cc(F)cc4c3c2CCNC4=O)cc1 ?
28.1

====

system: CCRF-CEM leukemia; assay: NCI tumour cell line growth inhibition, 48 h
recordedMetric: TGI

| compound | TGI |
| --- | --- |
| CCCCC[C@@H](C/C=C/CCC(=O)NC/C(=C/Cl)[C@H]1C(=O)C(C)(C)C(=O)[C@@H](C)[C@@]1(C)O)OC | 15.7 µM |

Working through the 3 compounds below one at a time, give TGI for each.
1. Cc1nc(Cc2n[nH]c(C)n2)n[nH]1
2. COc1cc2cc3c(c(O)c2c(O)c1-c1c(OC)cc2cc4c(c(O)c2c1O)C(=O)O[C@H](C)C4)C(=O)O[C@H](C)C3
3. C#Cc1cccc(NC(=O)C2CCCN(C(=O)CCl)C2)c1 (stereo not given)

["> 100 µM", "67.7 µM", "64.4 µM"]

So what does the record say about TGI for C=CCOC(=O)N1c2ccc(O)cc2[C@@]23O[C@@]24[C@@H]1C#C/C=C\C#C[C@]3(O)C(=O)C[C@@H]4C ?
> 100 µM
